Data credit: patent US20020028836A1

Test system: primary cultured guinea-pig urinary bladder (GPB) cells
Test: Membrane hyperpolarization (MHP) assay, DiBAC(4)3 / FLIPR
Type: cell-based
Settings: Cavia porcellus, maximal steady-state hyperpolarization, normalized to response with 10 μM P1075 (100%)
Experimental: Compounds were evaluated for potassium channel opening activity using primary cultured guinea-pig urinary bladder (GPB) cells. […] Functional activity at potassium channels was measured by evaluating changes in membrane potential using the bis-oxonol dye DiBAC(4) (Molecular Probes) in a 96-well cell-based kinetic assay system, Fluorescent Imaging Plate Reader (FLIPR) (K. S. Schroeder et al., J. Biomed. Screen., v. 1 pp. 75-81 (1996)), hereby incorporated by reference. […]
In this section we review reported Emax values for a set of compounds.
Reply with just the number (in %).

Problem: Please give the measured Emax for this compound: Cc1ccc(C(=O)NC(NC(=S)Nc2cccc([N+](=O)[O-])c2)C(F)(F)F)cc1 (stereo not shown) [Example 4]
Result: 133

Problem: # lookup: Emax of O=C(NC(NC(=S)Nc1ccccc1)C(F)(F)F)c1ccc(Cl)cc1 (stereo not shown) [Example 20]
Result: 85

Problem: Bench note: what Emax did O=C(NC(CC12CC3CC(CC(C3)C1)C2)NC(=N[N+](=O)[O-])Nc1cccnc1)c1ccc(Cl)cc1 (stereo not shown) [Example 134] show?
Result: 86

Problem: Param item = Cc1ccc(C(=O)NC(NC(=S)Nc2cccc([N+](=O)[O-])c2)c2ccccc2)cc1 (stereo not shown) [Example 33] ; retrieve measured Emax.
Result: 102
